All figures here come from paper PMC3391680.

# test target: human lysyl-tRNA synthetase (human Krs1) (Homo sapiens, UniProt Q15046)
# Construct: purified recombinant human enzyme (Origene TP300311)
# Sequence (Q15046 2-597): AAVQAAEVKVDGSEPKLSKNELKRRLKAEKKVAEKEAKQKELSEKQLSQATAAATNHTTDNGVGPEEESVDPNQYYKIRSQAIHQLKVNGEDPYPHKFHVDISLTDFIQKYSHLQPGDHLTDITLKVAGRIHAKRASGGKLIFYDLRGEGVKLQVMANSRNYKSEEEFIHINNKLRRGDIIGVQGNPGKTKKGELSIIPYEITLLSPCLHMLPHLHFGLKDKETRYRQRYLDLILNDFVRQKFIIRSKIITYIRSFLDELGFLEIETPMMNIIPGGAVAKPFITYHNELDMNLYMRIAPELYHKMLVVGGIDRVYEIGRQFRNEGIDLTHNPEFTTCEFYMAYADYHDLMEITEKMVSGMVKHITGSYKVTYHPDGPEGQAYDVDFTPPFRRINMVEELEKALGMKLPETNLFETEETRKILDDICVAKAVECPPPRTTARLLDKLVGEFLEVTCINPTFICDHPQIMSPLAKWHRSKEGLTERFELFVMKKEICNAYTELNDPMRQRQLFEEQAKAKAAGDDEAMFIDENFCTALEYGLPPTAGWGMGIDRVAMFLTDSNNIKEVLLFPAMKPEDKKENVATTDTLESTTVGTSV
# assay explanation: Transcreener AMP fluorescence polarization aminoacylation assay with recombinant enzyme; weak inhibition
pIC50: −log10 of the molar value.
recorded metric: pIC50

Ask: Fill in pIC50 for record C[C@H]1CCC[C@H](C[C@H]2Cc3cc(O)cc(O)c3C(=O)O2)O1
Reply: < 4.70
